Tested on: U251 CNS
testName: NCI tumour cell line growth inhibition, 48 h
Listed below: TGI values for each entry.

Example compounds with recorded TGI:
compound	experimentalValue
O=C(c1c(F)c(F)c(F)c(F)c1F)n1c(=S)n(C(=O)c2c(F)c(F)c(F)c(F)c2F)c2ccccc21	> 100 µM
CCOc1ccc(OP2(=O)NC(=O)C=C(C)N2)cc1 (centres undefined)	> 100 µM
O=C(NO)c1ccc(CNc2cccc3nc(C4CC4)n(-c4ccccc4)c(=O)c23)cc1	3.23 µM
C(=NC12CC3CC(CC(C3)C1)C2)C1CCCCC1	> 100 µM

// TGI lookup, key: COC(=O)/C(=N\N)C(C(=O)C(=O)Nc1cc(Cl)ccc1Cl)c1nc2ccc([N+](=O)[O-])cc2[nH]c1=O (centres undefined)
> 100 µM

// TGI lookup, key: CC1=C(C(=O)NNC(=O)C[N+](C)(C)C)CC(C(=O)NNC(=O)C[N+](C)(C)C)=C(C)N1
> 100 µM

// TGI lookup, key: C#CCCCCCC(=O)N[C@H]1C=C[C@@H]2/C=C(C)/C=C/[C@@H](C)[C@H]([C@H](C)[C@H](O)[C@@H](C)NC(C)=O)OC(=O)/C=C/C=C(C)\C=C\[C@]2(C)C1
> 40 µM

// TGI lookup, key: CO/C(N)=C(\C#N)N=Cc1ccsc1
> 100 µM

// TGI lookup, key: COC1=CC(=O)C(O)=C(CC2(C)C(C)CCC3(C)C2CCCC3(C)C)C1=O (centres undefined)
13.8 µM

* * *

System: SF-268 CNS
testName: NCI tumour cell line growth inhibition, 48 h
Listed below: TGI values for each entry.

Example compounds with recorded TGI:
compound	TGI
COC(=O)C1(CCCCl)CCCN1C(=O)OC(C)(C)C (stereo unspecified)	> 100 µM
O=C1c2ccccc2N1C(=O)c1ccccc1[N+](=O)[O-]	> 100 µM
C=CCN(c1cc(O)c2c(c(C)cn2S(=O)(=O)c2ccccc2)c1[N+](=O)[O-])S(C)(=O)=O	> 100 µM
CC(C)C(=O)Cc1ccc2ccccc2n1	> 100 µM
CN(CC(=O)Nc1ccccc1C(=O)O)c1ccccc1	> 100 µM

Lab note: need TGI for Cc1ccc2c(=O)cc(-c3cc(C)sc3C)[nH]c2n1 on SF-268 CNS, anyone have it?
> 73.4 µM

Lab note: need TGI for CN(C)c1ccc(/C=C2\CCc3ccccc3C2=O)cc1Br on SF-268 CNS, anyone have it?
> 100 µM

* * *

Test system: EKVX NSCLC
testName: NCI tumour cell line growth inhibition, 48 h
readout: TGI

Example compounds with recorded TGI:
compound	assayedTarget	readout	experimentalValue
O=C(O)CCC(NC(=O)c1ccc(Nc2nc3ccc(C(F)(F)F)cc3nc2C(=O)O)cc1)C(=O)O (centres undefined)	EKVX NSCLC	TGI	> 100 µM
CCCCCCCCCCCCOC1C(C(COC2OC(C(O)CO)C3OC(C)(C)OC23)OC(=O)Nc2ccccc2)OC2OC(C)(C)OC21 (centres undefined)	EKVX NSCLC	TGI	22.2 µM
O=C(CC1(O)C(=O)Nc2c(Cl)cc(Cl)cc21)c1cccc([N+](=O)[O-])c1 (centres undefined)	EKVX NSCLC	TGI	> 100 µM
COc1ccc(NC(=S)c2ccc([N+](=O)[O-])o2)cc1	EKVX NSCLC	TGI	7.78 µM

// TGI lookup, key: CC1=C(C(=O)Nc2ccc3[nH]ncc3c2)C(c2ccc(F)cc2)N=C(c2ccc(C(F)(F)F)nc2)N1 (centres undefined)
> 25 µM

// TGI lookup, key: NC(Cc1cc(I)c(Oc2ccc(O)c(I)c2)c(I)c1)C(=O)O (centres undefined)
> 100 µM

// TGI lookup, key: CC1OC(OC2C(OC(=O)[C@]34CCC(C)(C)C[C@H]3C3=CC[C@@H]5[C@@]6(C)CC[C@H](OC7OC(CO)C(O)C(O)C7OC7OC(CO)C(O)C(O)C7O)C(C)(C)[C@@H]6CC[C@@]5(C)[C@]3(C)CC4)OCC(O)C2O)C(O)C(O)C1OC1OCC(O)C(O)C1O (some centres undefined)
18.6 µM

// TGI lookup, key: COc1ccc([C@@H]2[C@@H](Oc3ccccc3)C(=O)N2c2cc(OC)c(OC)c(OC)c2)cc1F
> 100 µM

// TGI lookup, key: CS(=O)(=O)CCC1CCC(=O)O1 (centres undefined)
> 100 µM

// TGI lookup, key: Cc1cn([C@H]2C[C@@H](N3C(=O)c4ccccc4C3=O)[C@@H](CO[Si](C)(C)C(C)(C)C)O2)c(=O)[nH]c1=O
> 100 µM

// TGI lookup, key: CN(Cc1cccc2ccsc12)/N=C\c1ccc(Cl)cc1
> 100 µM

// TGI lookup, key: CCN1CCN(CC(=O)Nc2nc3ccc(NCc4ccc(Br)cc4)cc3s2)CC1
> 100 µM

// TGI lookup, key: Cc1[nH]c(=O)c2oc3cc4ccccc4cc3c2c1C(=O)O
> 10 µM

* * *

Tested on: RXF 393 renal
testName: NCI tumour cell line growth inhibition, 48 h
readout: GI50

compound	GI50
CN(C)[C@@H]1C(=O)C(C(=O)NCc2nc3[nH]cnc(=S)c3[nH]2)=C(O)[C@@]2(O)C(=O)C3=C(O)c4c(O)cccc4[C@@](C)(O)[C@H]3C[C@@H]12	26.1 µM
OC[C@H]1C[C@](O)(c2ccc(F)cc2)[C@@H](c2ccc(F)cc2)O1	52.7 µM
COc1ccc(-n2c(=O)c3ccccc3n(Cc3ccc(C(=O)NO)cc3)c2=O)cc1	1.49 µM
COc1ccccc1CNCCCN1C(=O)c2ccc3c4c(ccc(c24)C1=O)C(=O)N(CCCNCc1ccccc1OC)C3=O	0.142 µM
COc1ccc(Cn2c(Br)c3c(c2-c2cc(OC)c(OC)c(OC)c2)CCc2sc(N)nc2-3)cc1	0.448 µM
O=C1NC(=O)C2C3C=CC(C12)C1C2C(=O)NC(=O)C2C31 (stereo not drawn)	> 1000 µM
CN(C)CCCC1(c2ccc(F)cc2)OCc2cc(-c3csc4ccccc34)ccc21 (stereo not drawn)	1.54 µM

Attention now shifts to the item below.
// GI50 lookup, key: CC(=O)O[C@H]([C@H](OC(C)=O)[C@H](C)OC(C)=O)[C@@H](/C=C/[C@H]1CC=CC(=O)O1)OC(C)=O
> 100 µM

* * *

Test system: IGROV1 ovarian
testName: NCI tumour cell line growth inhibition, 48 h
readout: TGI

smilesRepr	assayedTarget	TGI
FC(F)(F)c1cccc(CNC2CCN(CCc3ccccc3)CC2)c1	IGROV1 ovarian	> 100 µM

// TGI lookup, key: O=C1NC(=O)N(S(=O)(=O)c2cc(C(=O)Nc3ccc(Cl)cc3)c(Cl)cc2S)S(=O)(=O)N1
51.6 µM

// TGI lookup, key: COc1cc2c(cc1OCCN1CCN(CCN3C(=O)c4cccc5cccc(c45)C3=O)CC1)N=C[C@@H]1CCCN1C2=O
36.9 µM

// TGI lookup, key: O=c1[nH]c2ccccc2c2oc3ccccc3c12
> 100 µM

// TGI lookup, key: CN(Cc1cccc2ccsc12)/N=C\c1ccc(Cl)cc1
> 100 µM

// TGI lookup, key: Cc1ccccc1NC(=O)CC(=O)NNCC(=O)Nc1nnc(-c2ccccc2)s1
> 100 µM

* * *

Listed below: TGI values for each entry.
Test system: HS 578T breast
testName: NCI tumour cell line growth inhibition, 48 h

Example compounds with recorded TGI:
compound	assayedTarget	TGI
O=c1c(Oc2ccc(F)cc2F)cc2cnc(NC3CCOCC3)nc2n1C1CC1	HS 578T breast	> 25 µM
CCCCCCCCCCCCOC1C(C(COC2OC(C(O)CO)C3OC(C)(C)OC23)OC(=O)Nc2ccccc2)OC2OC(C)(C)OC21 (stereo unspecified)	HS 578T breast	18.6 µM
Cc1nn(C(=O)Cc2ccccc2)c2c1C(c1ccc(/C=C/c3ccccc3)cc1)SC(N)=N2 (stereo unspecified)	HS 578T breast	> 100 µM
Cc1nc2ccccc2n1Cc1nnc(-c2ccccc2)o1	HS 578T breast	> 100 µM
NC(Cc1cc(I)c(Oc2ccc(O)c(I)c2)c(I)c1)C(=O)O (stereo unspecified)	HS 578T breast	> 100 µM
NS(=O)(=O)c1c(O)c2ccccc2oc1=O	HS 578T breast	> 100 µM
COc1cc2c3c(n(CCCN)c(=O)c2cc1OC)-c1ccc(N)cc1C3=O	HS 578T breast	12.5 µM
NC1=C(c2nc(-c3ccccc3)cs2)C(c2ccco2)c2c(c3ccccc3oc2=O)O1 (stereo unspecified)	HS 578T breast	> 100 µM

Lab note: need TGI for O=S(=O)(O)C(c1ccccc1)C(O)c1ccccc1 (stereo unspecified) on HS 578T breast, anyone have it?
> 100 µM

Lab note: need TGI for CN(c1ccccc1)c1c2ccccc2nc2[nH]c3ccccc3c12 on HS 578T breast, anyone have it?
12.9 µM

Lab note: need TGI for CC(=O)Oc1ccc(-c2nnc(-c3ccc(OC(C)=O)cc3)nn2)cc1 on HS 578T breast, anyone have it?
> 100 µM
